Test system: FXN mRNA
Experiment: Screen of library of eighty epigenetic inhibitors in GM03816 FRDA diseased fibroblasts, FXN mRNA fold change
Type: cell-based, human
Conditions: Homo sapiens, Fibroblast, 72 h; GM03816 FRDA diseased fibroblasts; 5 uM inhibitor; 3 days of treatment; read-out: 3816 5 uM (FXN mRNA fold change)
Protocol: FXN RNA levels are indicated on the y-axis and the inhibitors used at both 1 μM and 5 μM are shown on the x-axis. A screen of a library of eighty epigenetic inhibitors (Cayman Chemical) was performed in GM03816 FRDA fibroblasts to identify epigenetic regulators that upregulate FXN expression.
QUANTITY: fold induction at 5 µM
Please give only the number in your answer, with no unit.

Nc1ncnc2c1ncn2[C@@H]1O[C@H](CSCC[C@H](N)C(=O)O)[C@@H](O)[C@H]1O : 0.886
CC(NC(=O)c1ccccc1/N=C/c1c(O)ccc2ccccc12)c1ccccc1 (stereo not drawn) : 0.92
CNCc1ccc(-c2[nH]c3cc(F)cc4c3c2CCNC4=O)cc1 : 0.892
O=C(/C=C/c1ccc(O)cc1)c1ccc(O)cc1O : 0.963
Nc1cc(F)ccc1NC(=O)c1ccc(CNC(=O)/C=C/c2cccnc2)cc1 [Chidamide] : 0.968

Query block: Fill in: fold induction at 5 µM of COc1cc2c(NC3CCN(C(C)C)CC3)nc(C3CCCCC3)nc2cc1OCCCN1CCCC1 [UNC0638, reference compound] is ___
Result block: 1.17

----------
Tested on: FXN mRNA
Test: Screen of epigenetic inhibitors in GM0321 normal fibroblasts, FXN RNA levels
Type: cell-based, human
Details: Homo sapiens, Fibroblast, 72 h; GM0321 normal fibroblasts, 1 uM inhibitor, 3 days of treatment; read-out: FXN mRNA fold change, 321B 1 uM
QUANTITY: fold induction at 1 µM
Enter the number alone.

Please review the entries below; each comes with its answer.
Nc1nc(OCc2cc(Br)cs2)c2[nH]cnc2n1 : 1.05
CNCc1ccc(-c2[nH]c3cc(F)cc4c3c2CCNC4=O)cc1 : 0.895
COc1cc2c(NC3CCN(C)CC3)nc(N3CCCN(C)CC3)nc2cc1OCCCN(C)C [UNC0224, reference compound] : 0.876

Query block: Recorded fold induction at 1 µM of Oc1cc(O)c2cc(O)c(-c3cc(O)c(O)c(O)c3)[o+]c2c1 [Delphinidin chloride] , please.
Result block: 1.09

----------
System: FXN mRNA
Test: Screen of epigenetic inhibitors in GM0321 normal fibroblasts, FXN RNA levels
Type: cell-based, human
Conditions: Homo sapiens, Fibroblast, 72 h; GM0321 normal fibroblasts, 1 uM inhibitor, 3 days of treatment; read-out: FXN mRNA fold change, 321B 1 uM
QUANTITY: fold induction at 1 µM
Quick one: just the number, no unit, thanks!

Nc1cc(F)ccc1NC(=O)c1ccc(CNC(=O)/C=C/c2cccnc2)cc1 [Chidamide] : 0.835
CCCCc1nc2cc(/C=C/C(=O)NO)ccc2n1CCN(CC)CC : 0.435
O=C(/C=C/c1ccc(O)cc1)c1ccc(O)cc1O : 1.16

// below: fold induction at 1 µM requested for another compound
Query block: What value of fold induction at 1 µM on FXN mRNA does CC(NC(=O)c1ccccc1/N=C/c1c(O)ccc2ccccc12)c1ccccc1 (stereo not shown) have?
Result block: 0.81
